target: IL-23 (human, p19/p40 heterodimer) (Homo sapiens, UniProt Q9NPF7;P29460 SEQ:20-189,SEQ:23-328); test: filter; direct binding without tRNA; conditions: tags: R&D Systems, carrier free; label: 5'-32P
Sequence (Q9NPF7 20-189, chain 1 of 2): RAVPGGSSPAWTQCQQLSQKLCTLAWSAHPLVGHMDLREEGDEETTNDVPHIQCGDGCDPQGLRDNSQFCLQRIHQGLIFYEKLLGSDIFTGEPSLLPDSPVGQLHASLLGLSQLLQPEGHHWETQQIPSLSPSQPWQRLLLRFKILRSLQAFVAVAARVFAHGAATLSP
Sequence (P29460 23-328, chain 2 of 2): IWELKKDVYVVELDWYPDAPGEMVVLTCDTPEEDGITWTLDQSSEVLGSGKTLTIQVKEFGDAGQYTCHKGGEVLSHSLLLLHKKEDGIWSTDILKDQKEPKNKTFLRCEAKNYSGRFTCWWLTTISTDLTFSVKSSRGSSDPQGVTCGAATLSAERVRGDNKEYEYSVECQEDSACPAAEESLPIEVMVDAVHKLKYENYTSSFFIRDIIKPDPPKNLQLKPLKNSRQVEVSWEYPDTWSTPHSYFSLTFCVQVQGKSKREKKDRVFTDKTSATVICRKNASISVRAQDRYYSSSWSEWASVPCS
Endpoint: pKd
Just so you know, pKd here is -log10 of the concentration in molar units; reply with that number alone.

Ask: Indicate the recorded pKd value for this binder: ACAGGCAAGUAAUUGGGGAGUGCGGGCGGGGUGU (mixed, dRmY; PS between nt 9 and 10) [ARC1154]
Result: 6.39
